test system: CCRIS mutagenicity, Ames/micronucleus/aberration tests; experiment: CCRIS mutagenicity studies; conditions: Test System: AMES SALMONELLA TYPHIMURIUM; Strain/Indicator: TA100; Metabolic Activation: RAT, LIVER, S-9, AROCLOR 1254; Method: STANDARD PLATE
Active and inactive are the calls of the source. How the calls were made is not given here.
Form entry, call: pick from active, inactive

O=Nc1ccc(NNc2ccccc2)cc1 = active
CCCCCCCCCCCCS = inactive
CCOCC(=O)O = inactive
O=[N+]([O-])c1ccc(N=Nc2ccc(N(CCO)CCO)cc2)c([N+](=O)[O-])c1 = active

Problem: What outcome does the record of this test show for CCOC(=O)CC(SP(=S)(OC)OC)C(=O)OCC (configuration not stated) ?
Result: inactive

Problem: What outcome does the record of this test show for `CCCCOc1cc2c(c3ccc4ccccc4c13)CCC2=O` ?
Result: inactive

Problem: What outcome does the record of this test show for `O=S(=O)(Nc1cccc(Cl)c1)c1cccc2cccnc12` ?
Result: inactive

Problem: What outcome does the record of this test show for `Cc1ccc(N=Nc2ccc(N(CCO)CCO)cc2)cc1` ?
Result: inactive

###

tested on: CCRIS mutagenicity, Ames/micronucleus/aberration tests; experiment: CCRIS mutagenicity studies; settings: Test System: AMES SALMONELLA TYPHIMURIUM; Strain/Indicator: TA100; Metabolic Activation: RAT, LIVER, S-9, AROCLOR 1254 (10%); Method: PREINCUBATION
Active and inactive are the calls of the source. The rule behind the calls is not given here.
Form entry, call: pick from active, inactive

Please review the following examples before continuing.
CC(Cl)Cl = inactive
CCCCCCCCCCCCS = inactive
CC(O)CCl (centres undefined) = inactive

Problem: What outcome does the record of this test show for `CC(C)CN(CC(C)C)CC(C)C` ?
Result: inactive

Problem: What outcome does the record of this test show for `CCCNCCC` ?
Result: inactive

Problem: What outcome does the record of this test show for `CCN(C(=O)N(CC)c1ccccc1)c1ccccc1` ?
Result: inactive

Problem: What outcome does the record of this test show for `CCN(CC)c1cccc(O)c1` ?
Result: inactive

Problem: What outcome does the record of this test show for `O[C@H]([C@H](O)[C@@H](O)CBr)[C@H](O)CBr` ?
Result: active

Problem: What outcome does the record of this test show for `FC(F)(F)c1cccc(Cl)c1` ?
Result: inactive

###

System: CCRIS mutagenicity, Ames/micronucleus/aberration tests
Assay: CCRIS mutagenicity studies
Settings: Test System: AMES SALMONELLA TYPHIMURIUM; Strain/Indicator: TA100; Metabolic Activation: HAMSTER, LIVER, S-9, AROCLOR 1254 (10%); Method: PREINCUBATION
Text: The CCRIS database contains chemical records with carcinogenicity, mutagenicity, tumor promotion, and tumor inhibition test results. It was developed by the National Cancer Institute (NCI). Data are derived from studies cited in primary journals, current awareness tools, NCI reports, and other sources. Test results have been reviewed by experts in carcinogenesis and mutagenesis. CCRIS provides historical information from the years 1985 - 2011. It is no longer updated. […]
Activity calls are given as the source filed them. The rule behind the calls is not given here.
Form entry, call: pick from 1.0 = active, 0.0 = inactive

Please review the following examples before continuing.
Cc1cc(=O)[nH]c(=S)[nH]1 = 0.0
O[C@H]([C@H](O)[C@@H](O)CBr)[C@H](O)CBr = 1.0
CCN(C(=O)N(CC)c1ccccc1)c1ccccc1 = 0.0

Problem: What outcome does the record of this test show for `CNCCS(=O)(=O)O` ?
Result: 0.0

Problem: What outcome does the record of this test show for `Cc1cc(O)c(C(C)(C)C)cc1Sc1cc(C(C)(C)C)c(O)cc1C` ?
Result: 0.0

Problem: What outcome does the record of this test show for `CC(C)[N+](C)(CCOC(=O)C1c2ccccc2Oc2ccccc21)C(C)C` ?
Result: 0.0
